Values compiled from patent US8226983B2.

- ASSAY_OVERVIEW: Average particle diameter by BET type specific surface area analyzer
- Type: physicochemical
- CONDITION: after pulverization; BET method
QUANTITY: average particle diameter of the resulting particles (nm)

For the compound shown here, CCCCCCCCOc1c(O)c2ccc(NC(=O)C=Cc3cc(OC)c(O)c(OC)c3)cc2n(C)c1=O [Comparative Example 7] , give the reported average particle diameter of the resulting particles.
128

Would you mind telling me what average particle diameter of the resulting particles value was observed for CCC(=O)O[C@]1(C(=O)SCF)[C@H](C)C[C@H]2[C@@H]3C[C@H](F)C4=CC(=O)C=C[C@]4(C)[C@@]3(F)[C@@H](O)C[C@@]21C [Example 20, fluticasone propionate] ?
94

If you can, please state the reported average particle diameter of the resulting particles value of CCC(=O)O[C@]1(C(=O)SCF)[C@H](C)C[C@H]2[C@@H]3C[C@H](F)C4=CC(=O)C=C[C@]4(C)[C@@]3(F)[C@@H](O)C[C@@]21C [Example 17, fluticasone propionate] .
114

1 = CCC(=O)O[C@]1(C(=O)SCF)[C@H](C)C[C@H]2[C@@H]3C[C@H](F)C4=CC(=O)C=C[C@]4(C)[C@@]3(F)[C@@H](O)C[C@@]21C [Example 19, fluticasone propionate]
2 = CCC(=O)O[C@]1(C(=O)SCF)[C@H](C)C[C@H]2[C@@H]3C[C@H](F)C4=CC(=O)C=C[C@]4(C)[C@@]3(F)[C@@H](O)C[C@@]21C [Comparative Example 10, fluticasone propionate]
Kindly identify the item with the lower average particle diameter of the resulting particles figure among these two: 1 and 2 Write the label of whichever entry you select.
1
